- STUDY_TARGET: Dual specificity mitogen-activated protein kinase kinase 1 (Homo sapiens)
- Sequence (Q02750 whole entry): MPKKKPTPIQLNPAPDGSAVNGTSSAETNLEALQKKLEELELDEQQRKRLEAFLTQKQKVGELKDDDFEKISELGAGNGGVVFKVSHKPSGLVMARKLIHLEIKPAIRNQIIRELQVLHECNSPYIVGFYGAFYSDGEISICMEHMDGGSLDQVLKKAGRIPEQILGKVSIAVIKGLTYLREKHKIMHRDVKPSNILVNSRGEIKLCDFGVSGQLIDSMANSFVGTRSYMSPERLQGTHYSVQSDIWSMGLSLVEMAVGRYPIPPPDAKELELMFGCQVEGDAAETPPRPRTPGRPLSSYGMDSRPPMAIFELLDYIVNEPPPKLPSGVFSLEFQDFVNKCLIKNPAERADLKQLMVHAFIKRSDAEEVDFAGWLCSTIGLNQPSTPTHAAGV
- MEASUREMENT_NOTES: Inhibition of MEK1 (unknown origin)
MEASUREMENT_NAME: IC50 (nM)
Answer in nM, number only, no unit symbol.

Query string: Entry O=C(c1ccc(F)c(F)c1Nc1ccc(I)cc1F)N1CC(O)([C@@H]2CCCCN2)C1 : reported IC50 = ?
Result string: 4.2

---

- MEASUREMENT_NOTES: Terminal half life in cynomolgus monkey at 3 mg/kg, iv by LC-MS/MS analysis
- Type: ADME, organism-based, Macaca fascicularis
- Set-up: dose 3 mg/kg, route intravenous
- CONDITION_SET: in vivo, read-out: beta t1/2 (converted)
MEASUREMENT_NAME: half-life (h)
Please reply with the bare figure in h and do not write the unit itself.

Query string: Dear colleague, I am looking for the recorded half-life of the following compound: O=C(c1ccc(F)c(F)c1Nc1ccc(I)cc1F)N1CC(O)([C@@H]2CCCCN2)C1
Result string: 10.3
